Overview of reported activity at 15 min, 25 µM across a group of molecules:
Target: UGT1A3 (Homo sapiens, UniProt P35503)
Sequence (P35503 29-534): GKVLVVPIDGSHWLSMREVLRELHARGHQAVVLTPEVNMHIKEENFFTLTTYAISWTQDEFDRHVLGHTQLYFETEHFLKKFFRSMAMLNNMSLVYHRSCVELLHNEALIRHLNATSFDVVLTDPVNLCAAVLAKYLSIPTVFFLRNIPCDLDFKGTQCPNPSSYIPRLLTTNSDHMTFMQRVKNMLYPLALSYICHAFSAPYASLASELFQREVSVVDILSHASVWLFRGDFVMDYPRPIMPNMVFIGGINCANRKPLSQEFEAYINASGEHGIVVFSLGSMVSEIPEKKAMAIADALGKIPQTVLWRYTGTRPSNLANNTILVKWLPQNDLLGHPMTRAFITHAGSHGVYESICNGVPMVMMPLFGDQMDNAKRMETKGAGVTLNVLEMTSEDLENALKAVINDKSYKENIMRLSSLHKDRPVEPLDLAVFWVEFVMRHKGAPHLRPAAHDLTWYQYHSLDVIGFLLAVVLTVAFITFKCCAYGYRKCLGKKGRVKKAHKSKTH
Experiment: Inhibition of raloxifene glucuronidation by recombinant UGT1A3 Supersomes
Details: human, recombinant UGT1A3 Supersomes, pH 7.5, probe raloxifene 50 μM (formation of glucuronide G2), Inhibition of raloxifene glucuronidation, G2, UGT1A3, G2; inhibitor 25 μM; raloxifene 50 μM, 250 μg/ml Supersomes, 1 mM UDPGA, 15 min
A number alone suffices; assume %.

Recorded activity at 15 min, 25 µM, per entry:
[[record]]
molecule = "O=c1c(O)c(-c2ccc(O)c(O)c2)oc2cc(O)cc(O)c12"
target_under_test = "UGT1A3 (Homo sapiens, UniProt P35503)"
unit_abbrev = "%"
measured = 49

[[record]]
molecule = "O=C(O[C@@H]1Cc2c(O)cc(O)cc2O[C@H]1c1cc(O)c(O)c(O)c1)c1cc(O)c(O)c(O)c1 [Gallocatechin gallate]"
target_under_test = "UGT1A3 (Homo sapiens, UniProt P35503)"
unit_abbrev = "%"
measured = 70

[[record]]
molecule = "CC/C(=C(/CC)c1ccc(O)cc1)c1ccc(O)cc1 [Diethylstilbestrol, reference compound]"
target_under_test = "UGT1A3 (Homo sapiens, UniProt P35503)"
unit_abbrev = "%"
measured = 48


# activity at 15 min, 25 µM (molecule: O=C(OC[C@H]1O[C@@H](OC(=O)c2cc(O)c(O)c(OC(=O)c3cc(O)c(O)c(O)c3)c2)[C@H](OC(=O)c2cc(O)c(O)c(OC(=O)c3cc(O)c(O)c(O)c3)c2)[C@@H](OC(=O)c2cc(O)c(O)c(OC(=O)c3cc(O)c(O)c(O)c3)c2)[C@@H]1OC(=O)c1cc(O)c(O)c(OC(=O)c2cc(O)c(O)c(O)c2)c1)c1cc(O)c(O)c(OC(=O)c2cc(O)c(O)c(O)c2)c1 ) is 38

So, CCCCCCCCOC(=O)c1cc(O)c(O)c(O)c1 [Octyl gallate] ? Its activity at 15 min, 25 µM was 31

* * *

residual metabolism (percentage of control), labetalol LG1 for assorted compounds
Tested on: UGT enzymes of human liver microsomes
Construct: residual metabolism (percentage of control), labetalol LG1; other: labetalol 50 μM; residual metabolism (percentage of control), labetalol LG1; residual metabolism (percentage of control), labetalol LG2; inhi
Experiment: Inhibition of labetalol glucuronidation (LG1, LG2) in human liver microsomes
Assay type: biochemical
Conditions: labetalol 50 μM; inhibitor 100 μM

Solved cases below.
[[record]]
compound = "O=C(O[C@@H]1Cc2c(O)cc(O)cc2O[C@@H]1c1ccc(O)c(O)c1)c1cc(O)c(O)c(O)c1 [Epicatechin gallate]"
measured = "74 (1) %"

[[record]]
compound = "O=C(O[C@@H]1Cc2c(O)cc(O)cc2O[C@@H]1c1cc(O)c(O)c(O)c1)c1cc(O)c(O)c(O)c1 [Epigallocatechin gallate]"
measured = "55 (2) %"

[[record]]
compound = "C=CCc1ccc(O)c(OC)c1"
measured = "82 (2) %"


The compound Oc1cc(O)c2c(c1)O[C@H](c1cc(O)c(O)c(O)c1)[C@H](O)C2 [Epigallocatechin] showed residual metabolism (percentage of control), labetalol LG1 equal to 96 (7) %
